The reported measurements were obtained from PubChem BioAssay (NCI).

Test system: SR leukemia
PROTOCOL DESCRIPTION: NCI tumour cell line growth inhibition, 48 h
PROPERTY NAME: TGI

MOLECULE	TGI
CCCCOC(C)(C)/C=C/C(O)[C@](C)(O)[C@H]1[C@H](O)C[C@@]2(C)[C@@H]3CCc4c(cc(OC5OC(CO)C(O)C(O)C5O)c(O)c4C)C3(C)C(=O)C[C@]12C (some centres undefined)	> 100 µM

Lookup result for `COc1ccccc1NC(=O)C1=C(C)NC(C)=C(C(=O)Nc2ccccc2OC)C1c1ccccc1F` ; measured TGI: > 100 µM

Memo: COc1cc(C2c3cc4c(cc3OC(NN=C(C)C)C2C)OCO4)cc(OC)c1O (centres undefined) , reported TGI: 16.5 µM

====

Catalogue of TGI readings, one per entry.
System: M14 melanoma
PROTOCOL DESCRIPTION: NCI tumour cell line growth inhibition, 48 h
Give your result in µM as a bare value.

// below: answered compounds
> print(dat)
                                   compound  system.under.test  property.name  measured.number
1  N#C/C(=C1\OC(=O)C(c2ccc(Br)cc2)=C1O)c1ccc(Br)cc1       M14 melanoma            TGI             28.4
2  CCN(CC)CCNc1ccc2nnn3c4ccc(OC)cc4c(=O)c1c23       M14 melanoma            TGI             23.5
3                ClCCn1c(CCl)nc2ccc(Cl)cc21       M14 melanoma            TGI             1.64

Kindly review the next compound as well.
Memo: CC(CC(C#N)(c1ccccc1)c1ccccc1)N1CCCCC1 (centres undefined) , reported TGI: 39.1

====

Test system: CAKI-1 renal
PROTOCOL DESCRIPTION: NCI tumour cell line growth inhibition, 48 h
Each record here notes measured GI50.

These recorded examples may help you get a feel for the data.
COMPOUND SMILES	RESULT
CC(C)(C)C#CC1=C(Br)C(=O)OC1	2.38 µM
Cc1[c-]onc1C.Cc1[c-]onc1C.[Ag].[Ag].[NH-]S(=O)(=O)c1ccc(N=Nc2cc(N=Nc3ccc(S([NH-])(=O)=O)cc3)c3c(NC(=O)C(Cl)Cl)cccc3c2OC(=O)C(Cl)Cl)cc1	7.12 µM
COC(=O)[C@H](Cc1cn(C)cn1)NC(=O)[C@H](Cc1c[nH]c2ccccc12)NC(=O)Nc1cc(C(F)(F)F)cc(C(F)(F)F)c1	> 10 µM

Consider `CN(C)S(=O)(=O)c1ccc(NC(=O)COC(=O)c2ccc(S(=O)(=O)N3CCCCC3)cc2)cc1` . Its measured GI50 is > 100 µM

Per the records, this compound ( `C=C1C(=O)O[C@H]2[C@H]1CC/C(COC(=O)NCc1ccccc1OC)=C\CC[C@@]1(C)O[C@@H]21` ) has GI50 equal to 1.38 µM

The compound listed as `CCN(Cc1ccc(F)c(F)c1)c1ccc(CO)c(Cl)c1` shows GI50 equal to 3.92 µM

`COc1ccc(C(=O)/C=C/c2ccc(/C=C/c3cc(OC)c(OC)c(OC)c3)cc2)cc1` yielded GI50 of 14.6 µM

The reported GI50 of the compound `Cc1c(C(=O)/C=C/c2csc3ccccc23)[n+](=O)c2ccccc2n1[O-]` was 1.42 µM

GI50 measured on `C[C@H](Nc1ncnc2nc[nH]c12)c1cc2cccc(Cl)c2c(=O)n1-c1ccccc1` = 13.5 µM

So for `COC(=O)[C@]12CC[C@@H](C)[C@H](C)[C@@H]1C1=CC[C@@H]3[C@@]4(C)C[C@@H](OC(C)=O)[C@H](O)[C@@](C)(COC(C)=O)[C@@H]4[C@H](O)C[C@@]3(C)[C@]1(C)CC2` , the logged GI50 turned out to be 2.82 µM

====

Reported TGI by item:
Test system: RXF 393 renal
PROTOCOL DESCRIPTION: NCI tumour cell line growth inhibition, 48 h

Item `Cc1c(C(=O)/C=C/c2csc3ccccc23)[n+](=O)c2ccccc2n1[O-]` ; assay system RXF 393 renal; TGI reported as 3.58 µM

Entry `Cc1ccc(S(=O)(=O)Oc2cc(N)c3c(n2)CCC3)cc1` , RXF 393 renal data, TGI value: > 100 µM

Summary: `C/C(=N/NC(N)=S)c1ccc2ccccc2c1` , RXF 393 renal, TGI = 81.8 µM

Simply: `CCCCN1CCN(c2ccc3nc(-c4ccc5nc(-c6ccc(C(F)(F)F)cc6)[nH]c5c4)[nH]c3c2)CC1` , RXF 393 renal, TGI = 2.49 µM

Lab note: compound `Cc1ccc(C(=O)O/N=C2/CCC/C2=C\c2ccccc2)cc1` tested on RXF 393 renal; recorded TGI was > 100 µM

The value of TGI recorded for `CCSC1=CC(=O)c2nc3ccccc3c3ccnc1c23` when tested on RXF 393 renal reads 18.2 µM

====

Tested on: MOLT-4 leukemia
PROTOCOL DESCRIPTION: NCI tumour cell line growth inhibition, 48 h
PROPERTY NAME: TGI

> print(dat)
                                   compound  property.name    result
1  c1ccc2c(c1)[nH]c1nc3cc(-c4ccc5nc6c(nc5c4)[nH]c4ccccc46)ccc3nc12            TGI  > 100 µM
2                   CCCCCCCCCCCCOC(=S)NCCCC            TGI     36 µM
3  Cc1cccc(NC(=O)CC(=O)N2N=C(N(CCC#N)c3ccc(Cl)cc3)CC2c2ccccc2)c1 (stereo not drawn)            TGI  > 100 µM
4  CC(C)(C)NC(=O)[C@H]1CC[C@H]2[C@@H]3CC=C4NC(=O)CC[C@]4(C)[C@H]3CC[C@]12C            TGI  > 100 µM
5  COc1ccc(N[C@H](CSc2ccc(C)cc2)c2ccc(F)cc2)cc1            TGI  > 100 µM

TGI measured on `CC1=NOC(=O)/C1=C/c1ccccc1O` = > 100 µM

TGI reading for `COC(=O)NN(C(=O)OC)c1c(-c2ccccc2)nc(SC)n1N` : > 100 µM

====

Test system: RPMI-8226 leukemia
PROTOCOL DESCRIPTION: NCI tumour cell line growth inhibition, 48 h
TGI values, listed per item
Numeric only. Scale: µM

response.value for C=CCC1([C@H](C)[C@@H](OC(C)=O)c2cc(OC)c(OC)c(OC)c2)C[C@@H](OC)CCC1=O (stereo not given in full) (field: TGI) = 50.3

Please fill in: TGI reported for `C=C1C(=O)O[C@H]2[C@H]1CC/C(COC(=O)NCc1ccccc1OC)=C\CC[C@@]1(C)O[C@@H]21` = 6.24

The measured TGI associated with `CC(C)=CCc1c2c(c3occ(-c4ccc(O)c(O)c4)c(=O)c3c1O)C=CC(C)(C)O2` reads 4.04

For `CCN(Cc1ccc(F)c(F)c1)c1ccc(CO)c(Cl)c1` the compound record lists TGI as 28.9

====

Tested on: A549 NSCLC
PROTOCOL DESCRIPTION: NCI tumour cell line growth inhibition, 48 h
PROPERTY NAME: TGI

See these solved cases before continuing.
> print(dat)
                                   molecule    result
1  NC(=O)C(=O)N/N=C1/c2ccccc2CC1C1(O)C(=O)Nc2c(Cl)cc(Cl)cc21 (stereo not given)  > 100 µM
2  COP(=O)(O)/C=C/C(NC(=O)C(Cl)(Cl)Cl)c1ccccc1 (stereo not given)  > 100 µM
3  COc1cc(OCc2ccc3oc(=O)c(-c4ccccc4)nc3c2)cc(OC)c1OC  > 100 µM

# context switch: different molecule, same TGI
Reported TGI ( `COCCN1C2=CCCCC2=Nc2c1nc(N)[nH]c2=O` ) = > 100 µM

====

Tested on: UO-31 renal
PROTOCOL DESCRIPTION: NCI tumour cell line growth inhibition, 48 h
PROPERTY NAME: TGI (µM)
Write the number in µM without appending the unit.

> print(dat)
                        compound.smiles  value.unit  measured.number
1  CCN(Cc1ccc(F)c(F)c1)c1ccc(CO)c(Cl)c1          µM             19.2

Note: attention shifts to another entry.
Query `Cc1ccc(-c2c(N)[n+]([O-])c3ccccc3[n+]2[O-])cc1` yields TGI of 29.7

====

TGI overview
Tested on: NCI-H460 lung
PROTOCOL DESCRIPTION: NCI tumour cell line growth inhibition, 48 h

# example entries with known answers
COMPOUND	RESULT
CN1CCN(CCc2cccc(C(=O)c3cnn(-c4ccc(F)cc4)c3N)c2)CC1	> 25 µM
CNC(=O)n1ccc2cc(Oc3ccnc(NC(=O)c4ccc(C5CCN(CCO)CC5)cc4)c3)c(OCCOC)cc21	10.2 µM
CCCc1[nH]nc(CCC(=O)N(Cc2ccccc2)Cc2ccccc2)c1CC	> 100 µM
COC(=O)/C=C/C=C(c1ccccc1)c1ccccc1	15.2 µM
CNC(=O)OCc1nc(SC2CCCCO2)n(C)c1COC(=O)NC (stereo not given)	> 100 µM
Nc1cc2cccc[n+]2c2cc(Cl)ccc12	49.6 µM

Entry `C[N+](C)(C)CC(=O)N/N=C(/Cc1nc2c3c(ccc2[nH]c1=O)C(=O)c1ccccc1C3=O)C(=O)Nc1ccc(Cl)c(Cl)c1` : TGI on NCI-H460 lung = > 100 µM

For `CCSC1=CC(=O)c2nc3ccccc3c3ccnc1c23` on NCI-H460 lung, measured TGI was 23.8 µM

Log: NCI-H460 lung, compound `CCN(CC)S(=O)(=O)c1ccc(OC)c(Nc2ncc(-c3ccccc3)o2)c1` , TGI = > 25 µM

TGI for NCI-H460 lung with input `CCOC(=O)C1=C(C)N(Cc2ccccc2)C(C)=C(C(=O)OCC)C1c1ccccc1O` equals > 100 µM

NCI-H460 lung data for `CCOC(=O)C1=C(C(C)=O)CSC(c2ccccc2)=N1` ; its TGI: > 100 µM

Hey, NCI-H460 lung data for `O=C(O)c1ccc([Se][Se]c2ccc(C(=O)O)cc2)cc1` : TGI came out at 54.9 µM

Result for `COc1ccc(-c2cc(=O)c3cc4c(cc3[nH]2)OCO4)c(OC)c1OC` , tested on NCI-H460 lung, TGI: > 100 µM

The compound `CCNC(=O)Nc1ccccn1` , tested on NCI-H460 lung, showed TGI of > 100 µM

Known value: NCI-H460 lung TGI of the compound `Cc1ccc(-c2c(N)[n+]([O-])c3ccccc3[n+]2[O-])cc1` equals 47 µM
